Target desc: Estrogen receptor (Homo sapiens, UniProt Q92731+P03372)
Type: functional, cell-based
Condition context: ishikawa
Recorded endpoint: log10(IC50) (log10 of the value in nM)
Values reflect log10 of reported IC50 (nM).

In: Output reported log10(IC50) of the compound Oc1ccc2c3c(ccc2c1)Cc1cccc(O)c1C3c1ccc(OCCN2CCCCC2)cc1 (stereo not given) on Estrogen receptor (Homo sapiens, UniProt Q92731+P03372).
Out: 2.76

In: Output reported log10(IC50) of the compound Oc1ccc2c(c1)C(c1ccc(OCCN3CCCCC3)cc1)c1c(ccc3cc(O)ccc13)C2 (stereo not given) on Estrogen receptor (Homo sapiens, UniProt Q92731+P03372).
Out: 2.11

In: Output reported log10(IC50) of the compound Oc1ccc2c(c1)Cc1sc3cc(O)ccc3c1C2c1ccc(C(O)CCN2CCCCC2)cc1 (stereo not given) on Estrogen receptor (Homo sapiens, UniProt Q92731+P03372).
Out: 1.65

In: Output reported log10(IC50) of the compound Oc1ccc2c(c1)sc1cc3ccc(O)cc3c(-c3ccc(C(O)CCN4CCCCC4)cc3)c12 (stereo not given) on Estrogen receptor (Homo sapiens, UniProt Q92731+P03372).
Out: 2.84

In: Output reported log10(IC50) of the compound Oc1ccc2c3c(ccc2c1)Cc1c(O)cccc1C3c1ccc(OCCN2CCCCC2)cc1 (stereo not given) on Estrogen receptor (Homo sapiens, UniProt Q92731+P03372).
Out: 1.70

Origin of values: ChEMBL document CHEMBL1137044
